Molecular target: T1, rat amylin receptor (rat calcitonin receptor + rat RAMP 3) (rat, UniProt P32214 25-516; Q9JJ73 23-147)
T1 construct: whole, on cells; Membranes of BHK tk'ts 13 cells transiently transfected with the rat calcitonin receptor and rat RAMP 3; also called rAmylin-R; rat amylin 3(a) receptor
T1 sequence (looked up) 1: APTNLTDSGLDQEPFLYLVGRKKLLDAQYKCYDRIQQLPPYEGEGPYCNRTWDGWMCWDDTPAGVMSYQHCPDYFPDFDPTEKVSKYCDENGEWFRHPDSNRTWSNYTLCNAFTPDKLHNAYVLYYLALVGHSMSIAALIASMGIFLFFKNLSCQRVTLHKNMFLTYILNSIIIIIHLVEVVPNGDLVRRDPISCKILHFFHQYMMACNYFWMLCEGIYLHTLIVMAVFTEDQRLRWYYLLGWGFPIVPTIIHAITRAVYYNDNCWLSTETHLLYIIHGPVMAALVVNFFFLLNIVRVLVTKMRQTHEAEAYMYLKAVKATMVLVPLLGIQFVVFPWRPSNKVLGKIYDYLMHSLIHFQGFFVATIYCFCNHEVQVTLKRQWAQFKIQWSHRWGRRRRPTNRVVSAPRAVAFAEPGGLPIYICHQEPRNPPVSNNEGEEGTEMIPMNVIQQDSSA
T1 sequence (looked up) 2: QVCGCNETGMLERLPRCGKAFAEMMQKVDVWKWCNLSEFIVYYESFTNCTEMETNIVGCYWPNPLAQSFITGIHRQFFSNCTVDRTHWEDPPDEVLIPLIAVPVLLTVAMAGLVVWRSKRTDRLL
Assay: SPA competition vs 125I-rat amylin, membranes with rat CTR + rat RAMP3 (Assay VI)
pIC50: −log10 of the molar value. Numbered stars: 1 amine (or outer) side, 2 acyl side, 3 side chain; on linkers, the order of the positions; unused ones are H or OH. Bridge positions count the residues as written; N and C are the ends. * marks the point of attachment. C20 diacid = O=C(O)CCCCCCCCCCCCCCCCCCC(=O)*; γGlu = O=C(O)[C@H](CCC(=O)[*:2])N[*:1]

binder: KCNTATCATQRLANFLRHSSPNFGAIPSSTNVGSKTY (C20 diacid-gGlu on the alpha amino group of the N-terminal residue (Lys 1); disulfide bridge Cys2-Cys7; C-terminal amide, modifications are with respect to human amylin; also called compound 34) [N^α1-[(4S)-4-carboxy-4-(19-carboxynonadecanoylamino)butanoyl]-[Arg17,Pro21,Pro27,Lys35]-h-amylin]
pIC50: 8.77
//
binder: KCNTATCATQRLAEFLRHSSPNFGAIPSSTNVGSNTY (C20 diacid-gGlu-2xOEG on the alpha amino group of the N-terminal residue (Lys 1); disulfide bridge Cys2-Cys7; C-terminal amide, modifications are with respect to human amylin; also called compound 19)
pIC50: 8.99
//
binder: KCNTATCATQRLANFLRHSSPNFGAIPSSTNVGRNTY (C20 diacid-gGlu on the alpha amino group of the N-terminal residue (Lys 1); disulfide bridge Cys2-Cys7; C-terminal amide, modifications are with respect to human amylin; also called compound 39) [N^α1-[(4S)-4-carboxy-4-(19-carboxynonadecanoylamino)butanoyl]-[Arg17,Pro21,Pro27,Arg34]-h-amylin]
pIC50: 8.75
//
binder: {C20 diacid-γGlu}-KCNTATCATQRLAEFLRHSSPNFGAILPSTNVGSETY-NH2 (disulfide 2-7, modifications are with respect to human amylin; also called compound 33)
pIC50: 8.64
//
binder: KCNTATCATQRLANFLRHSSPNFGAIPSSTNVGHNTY (C20 diacid-gGlu on the alpha amino group of the N-terminal residue (Lys 1); disulfide bridge Cys2-Cys7; C-terminal amide, modifications are with respect to human amylin; also called compound 40) [N^α1-[(4S)-4-carboxy-4-(19-carboxynonadecanoylamino)butanoyl]-[Arg17,Pro21,Pro27,His34]-h-amylin]
pIC50: 8.82
//
binder: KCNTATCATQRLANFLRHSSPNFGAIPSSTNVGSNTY (C20 diacid-gGlu-2xOEG on the alpha amino group of the N-terminal residue (Lys 1); disulfide bridge Cys2-Cys7; C-terminal amide, modifications are with respect to human amylin; also called compound 24)
pIC50: 8.52
//
binder: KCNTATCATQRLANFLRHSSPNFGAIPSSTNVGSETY (C20 diacid-gGlu on the alpha amino group of the N-terminal residue (Lys 1); disulfide bridge Cys2-Cys7; C-terminal amide, modifications are with respect to human amylin; also called compound 23) [N^α1-[(4S)-4-carboxy-4-(19-carboxynonadecanoylamino)butanoyl]-[Arg17,Pro21,Pro27,Glu35]-h-amylin]
pIC50: 8.95

Every entry's value here was drawn from patent US20140087995A1.
